- System: HIV-1IIIB virus
- Assay Protocol: Anti-HIV activity: inhibition of HIV-1-induced cytopathic effect in MT-4 cells, MTT colorimetric assay
- Format: cell-based
- Details: Human immunodeficiency virus 1, MT4, 120 h, read-out: IC50 (50% antiviral effect concentration); HIV-1IIIB-infected MT-4 cells, 5 days, MTT; mean ± S.E.M (n = 3)
- Method: The effects of the test compounds in preventing cytopathic effects that occur because of HIV-1 replication were evaluated by MTT colorimetric assay. MT-4 cells suspended at 1 X 10^8 cells/ml were infected with 640 μL of HIV-1IIIB virus at 1.26 X10^8 TCID50/ml. After infection, 200 μl HIV-infected MT-4 cells (1 X10^5 cells/well) in growth media were added to each well. […] After 5 days of incubation, cell viability was determined by the MTT assay described. […]
Answer each item with its documented log10 IC50.
All values: log10 IC50 [µg/mL].

Compound: Cc1ccnc2c1NC(=O)c1cccnc1N2C1CC1 [NVP, Nevirapine, reference compound]
log10 IC50: -0.62
--
Compound: COc1ccccc1COC(=O)c1ccccc1 [Compound 1, 2-methoxy benzyl benzoate]
log10 IC50: -0.60
--
Compound: C=C(C)[C@@H]1CC[C@]2(CO)CC[C@]3(C)[C@H](CC[C@@H]4[C@@]5(C)CC[C@H](O)C(C)(C)[C@@H]5CC[C@]43C)[C@@H]12 [Compound 4, betulin]
log10 IC50: -2.70
--
Compound: Nc1nc(NC2CC2)c2ncn([C@H]3C=C[C@@H](CO)C3)c2n1 [ABC, Abacavir, reference compound]
log10 IC50: -1.30
--
Compound: C=C(C)[C@@H]1CC[C@]2(C)CC[C@]3(C)[C@H](CC[C@@H]4[C@@]5(C)CCC(=O)C(C)(C)[C@@H]5CC[C@]43C)[C@@H]12 [Compound 2, lupenone]
log10 IC50: -2.70

Attention now turns to another entry.
Request: Give the reported log10 IC50 for C=C(C)[C@@H]1CC[C@]2(C)CC[C@]3(C)[C@H](CC[C@@H]4[C@@]5(C)CC[C@H](O)C(C)(C)[C@@H]5CC[C@]43C)[C@@H]12 [Compound 5, lupeol] (system: HIV-1IIIB virus).
Response: -1.33

----------
- Test system: MT-4 cells
- Assay Protocol: in vitro
- Details: 5 days, MTT, mean ± S.E.M (n = 3)
Give measured CC50 (50% cytotoxic concentration) for each item. Keep answers brief.
Answers are plain numbers, in µg/mL.

Can you give me CC50 (50% cytotoxic concentration) for all of these, one by one?
1. Nc1nc(NC2CC2)c2ncn([C@H]3C=C[C@@H](CO)C3)c2n1 [ABC, Abacavir, reference compound]
2. Cc1ccnc2c1NC(=O)c1cccnc1N2C1CC1 [NVP, Nevirapine, reference compound]
3. C=C(C)[C@@H]1CC[C@]2(C)CC[C@]3(C)[C@H](CC[C@@H]4[C@@]5(C)CCC(=O)C(C)(C)[C@@H]5CC[C@]43C)[C@@H]12
4. C[C@H](Cn1cnc2c(N)ncnc21)OCP(=O)(O)O [TDF, Tenofovir, reference compound]

Response:
1. 0.26
2. 0.82
3. 28.83
4. 6.73

----------
- Tested on: MT-4 cells
- Assay Protocol: in vitro
- Details: 5 days, MTT, mean ± S.E.M (n = 3)
Label label 1 when EmaxC (maximum cytotoxic effect %) is at or above 40%; anything below gets label 0.

Look over these answered cases.
Compound: C[C@H](Cn1cnc2c(N)ncnc21)OCP(=O)(O)O [TDF, Tenofovir, reference compound]
Class Assignment: label 0

Compound: C=C(C)[C@@H]1CC[C@]2(CO)CC[C@]3(C)[C@H](CC[C@@H]4[C@@]5(C)CC[C@H](O)C(C)(C)[C@@H]5CC[C@]43C)[C@@H]12 [Compound 4, betulin]
Class Assignment: label 1

Compound: C=C(C)[C@@H]1CC[C@]2(C)CC[C@]3(C)[C@H](CC[C@@H]4[C@@]5(C)CC[C@H](O)C(C)(C)[C@@H]5CC[C@]43C)[C@@H]12 [Compound 5, lupeol]
Class Assignment: label 1

Compound: CC[C@H](/C=C/[C@@H](C)[C@H]1CC[C@H]2[C@@H]3CC=C4C[C@@H](O)CC[C@]4(C)[C@H]3CC[C@]12C)C(C)C [Compound 7, stigmasterol]
Class Assignment: label 1

Compound: Nc1nc(NC2CC2)c2ncn([C@H]3C=C[C@@H](CO)C3)c2n1 [ABC, Abacavir, reference compound]
Class Assignment: label 0

Now look at this one.
Request: Is EmaxC (maximum cytotoxic effect %) at least 40%? Consider C=C(C)[C@@H]1CC[C@]2(C)CC[C@]3(C)[C@H](CC[C@@H]4[C@@]5(C)CCC(=O)C(C)(C)[C@@H]5CC[C@]43C)[C@@H]12 [Compound 2, lupenone]
Response: label 0

----------
Hi there, I'd appreciate the recorded MNTC (maximum nontoxic concentration) for every entry that follows.
- Tested on: MT-4 cells
- Assay Protocol: in vitro
- Details: 5 days, MTT, concentration with cell viability above 80% (CC20), mean ± S.E.M (n = 3)
Give bare numbers, in µg/mL.

Take a look at these entries with their results.
Compound: C[C@H](Cn1cnc2c(N)ncnc21)OCP(=O)(O)O [TDF, Tenofovir, reference compound]
Test Value: 4.92
--
Compound: C=C(C)[C@@H]1CC[C@]2(C)CC[C@]3(C)[C@H](CC[C@@H]4[C@@]5(C)CC[C@H](O)C(C)(C)[C@@H]5CC[C@]43C)[C@@H]12
Test Value: 75.75
--
Compound: Nc1nc(NC2CC2)c2ncn([C@H]3C=C[C@@H](CO)C3)c2n1 [ABC, Abacavir, reference compound]
Test Value: 0.18

Hello, I would appreciate it if you could give MNTC (maximum nontoxic concentration) for each entry below.
1. C=C(C)[C@@H]1CC[C@]2(C)CC[C@]3(C)[C@H](CC[C@@H]4[C@@]5(C)CCC(=O)C(C)(C)[C@@H]5CC[C@]43C)[C@@H]12
2. CC[C@H](/C=C/[C@@H](C)[C@H]1CC[C@H]2[C@@H]3CC=C4C[C@@H](O)CC[C@]4(C)[C@H]3CC[C@]12C)C(C)C
3. C=C(C)[C@@H]1CC[C@]2(CO)CC[C@]3(C)[C@H](CC[C@@H]4[C@@]5(C)CC[C@H](O)C(C)(C)[C@@H]5CC[C@]43C)[C@@H]12
4. Cc1ccnc2c1NC(=O)c1cccnc1N2C1CC1 [NVP, Nevirapine, reference compound]

Response:
1: 14.17; 2: 4.70; 3: 16.54; 4: 0.57

----------
- Assay Protocol: in vitro
- Details: human, CC50 (50% cytotoxic concentration), MT-4 cells, 5 days, MTT; mean ± S.E.M (n = 3)
Measure: CC50 at 5 days (µg/mL)
Numbers only, in µg/mL.

Example cases with answers are listed next.
Structure As Smiles: CC[C@H](/C=C/[C@@H](C)[C@H]1CC[C@H]2[C@@H]3CC=C4C[C@@H](O)CC[C@]4(C)[C@H]3CC[C@]12C)C(C)C
Readout Units: µg/mL
Test Value: 12.4
//
Structure As Smiles: C=C(C)[C@@H]1CC[C@]2(C)CC[C@]3(C)[C@H](CC[C@@H]4[C@@]5(C)CCC(=O)C(C)(C)[C@@H]5CC[C@]43C)[C@@H]12
Readout Units: µg/mL
Test Value: 32.5
//
Structure As Smiles: C=C(C)[C@@H]1CC[C@]2(C)CC[C@]3(C)[C@H](CC[C@@H]4[C@@]5(C)CC[C@H](O)C(C)(C)[C@@H]5CC[C@]43C)[C@@H]12
Readout Units: µg/mL
Test Value: 142

Note: attention shifts to another entry.
Request: For the compound "C=C(C)[C@@H]1CC[C@]2(CO)CC[C@]3(C)[C@H](CC[C@@H]4[C@@]5(C)CC[C@H](O)C(C)(C)[C@@H]5CC[C@]43C)[C@@H]12" , what CC50 at 5 days is on record?
Response: 31.7
